# method_description: Cytotoxicity against HIV1 3B-infected human MT4 cells by MTT assay
# Type: cell-based
# run_parameters: MT4 cells infected with HIV-1 3B
reported_metric: CC50

compound	experimental_value
COc1cc(/C=C/C(=O)CC(=O)/C=C/c2ccc(OC(=O)[C@H](Cc3ccccc3)NC(=O)[C@@H](N)Cc3c[nH]c4ccccc34)c(OC)c2)ccc1OC(=O)[C@H](Cc1ccccc1)NC(=O)[C@@H](N)Cc1c[nH]c2ccccc12	> 94 nM
COc1cc(/C=C/C(=O)CC(=O)/C=C/c2ccc(OCCOC(=O)CCC(NC(=O)c3ccc(NCc4cnc5nc(N)[nH]c(=O)c5n4)cc3)C(=O)O)c(OC)c2)ccc1O (stereo not given)	> 63 nM
COc1cc(/C=C/C(=O)C(CCOC(=O)CCC(NC(=O)c2ccc(NCc3cnc4nc(N)[nH]c(=O)c4n3)cc2)C(=O)O)C(=O)/C=C/c2ccc(O)c(OC)c2)ccc1O (stereo not given)	> 63 nM
COc1cc(/C=C/C(=O)CC(=O)/C=C/c2ccc(OC(=O)CCC(NC(=O)c3ccc(NCc4cnc5nc(N)[nH]c(=O)c5n4)cc3)C(=O)O)c(OC)c2)ccc1OC(=O)CCC(NC(=O)c1ccc(NCc2cnc3nc(N)[nH]c(=O)c3n2)cc1)C(=O)O (stereo not given)	> 36 nM

Consider the record given below.
Look up CC50: CCCCCCCCCC(=O)Oc1ccc(/C=C/C(=O)CC(=O)/C=C/c2ccc(OC(=O)CCCCCCCCC)c(OC)c2)cc1OC > 81 nM

Just for reference, ChEMBL document CHEMBL1154855 is where these values come from.
